# TARGET: hERG potassium channel (Homo sapiens, UniProt Q12809)
# Sequence (Q12809 whole entry): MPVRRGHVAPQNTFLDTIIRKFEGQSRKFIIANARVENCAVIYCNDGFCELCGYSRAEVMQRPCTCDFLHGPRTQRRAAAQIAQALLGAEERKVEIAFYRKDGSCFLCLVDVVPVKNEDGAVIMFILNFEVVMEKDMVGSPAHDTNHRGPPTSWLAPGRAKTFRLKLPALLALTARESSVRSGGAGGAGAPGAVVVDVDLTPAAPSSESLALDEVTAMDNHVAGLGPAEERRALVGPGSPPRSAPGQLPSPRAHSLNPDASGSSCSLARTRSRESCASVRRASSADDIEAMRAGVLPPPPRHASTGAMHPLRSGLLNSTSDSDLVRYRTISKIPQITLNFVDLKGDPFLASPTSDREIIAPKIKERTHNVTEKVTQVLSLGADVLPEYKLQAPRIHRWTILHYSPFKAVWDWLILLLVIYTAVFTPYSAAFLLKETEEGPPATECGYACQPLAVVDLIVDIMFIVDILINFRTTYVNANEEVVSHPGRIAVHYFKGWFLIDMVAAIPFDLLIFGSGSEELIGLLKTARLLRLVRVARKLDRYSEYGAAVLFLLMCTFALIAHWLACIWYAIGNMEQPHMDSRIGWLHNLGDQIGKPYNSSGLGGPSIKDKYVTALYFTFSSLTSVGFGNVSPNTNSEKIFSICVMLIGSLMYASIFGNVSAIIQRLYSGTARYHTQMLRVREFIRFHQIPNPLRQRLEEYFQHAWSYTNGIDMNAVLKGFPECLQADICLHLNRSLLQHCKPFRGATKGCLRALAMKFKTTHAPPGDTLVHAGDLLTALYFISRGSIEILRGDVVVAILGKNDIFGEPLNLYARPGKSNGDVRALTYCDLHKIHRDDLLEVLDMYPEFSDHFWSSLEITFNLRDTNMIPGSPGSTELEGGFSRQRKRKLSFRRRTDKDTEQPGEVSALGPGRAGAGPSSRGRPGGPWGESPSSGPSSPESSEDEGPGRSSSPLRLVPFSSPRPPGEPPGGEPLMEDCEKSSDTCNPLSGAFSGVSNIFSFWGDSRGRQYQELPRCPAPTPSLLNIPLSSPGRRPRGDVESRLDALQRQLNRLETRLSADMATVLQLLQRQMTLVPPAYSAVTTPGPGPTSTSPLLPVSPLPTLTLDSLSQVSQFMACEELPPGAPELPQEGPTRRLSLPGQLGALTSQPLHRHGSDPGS
# PROTOCOL NOTES: biochemical
# CONDITION: hERG / IC50 (nM), Synthesis=NBI
REPORTED PROPERTY: IC50 (nM)

COMPOUND	TARGET	REPORTED PROPERTY	UNIT SPEC	NUMERIC RESULT
CN(C)CCN(C)c1nc2ccccc2n1Cc1ccccc1F [GMD_15306]	hERG potassium channel (Homo sapiens, UniProt Q12809)	IC50	nM	3040
CN(C)CCn1nc(-c2cccc(Cl)c2)c2ccccc2c1=O [GMD_13630]	hERG potassium channel (Homo sapiens, UniProt Q12809)	IC50	nM	2420
CN(C)CCCn1nc(-c2cccc(Cl)c2)c2ccccc2c1=O [GMD_9433]	hERG potassium channel (Homo sapiens, UniProt Q12809)	IC50	nM	721
CN(C)CCn1nc(-c2ccccc2Cl)c2ccccc2c1=O [GMD_12767]	hERG potassium channel (Homo sapiens, UniProt Q12809)	IC50	nM	1590
CN(C)CCCn1nc(-c2ccccn2)c2ccccc2c1=O [GMD_13497]	hERG potassium channel (Homo sapiens, UniProt Q12809)	IC50	nM	6070
CN(C)CCCc1nc2ccccc2n1Cc1ccccc1 [compound 5, GMD_18471]	hERG potassium channel (Homo sapiens, UniProt Q12809)	IC50	nM	565
CN(C)CCCn1nc(-c2cccs2)c2ccccc2c1=O [GMD_12264]	hERG potassium channel (Homo sapiens, UniProt Q12809)	IC50	nM	1890
CN(C)CCn1nc(-c2ccc(Cl)cc2)c2ccccc2c1=O [NBI1099469]	hERG potassium channel (Homo sapiens, UniProt Q12809)	IC50	nM	1740
CN(C)CCCn1nc(-c2cncc(Cl)c2)c2ccccc2c1=O [GMD_27933]	hERG potassium channel (Homo sapiens, UniProt Q12809)	IC50	nM	968
CN(C)CCCn1nc(-c2cccnc2)c2ccccc2c1=O [GMD_11677]	hERG potassium channel (Homo sapiens, UniProt Q12809)	IC50	nM	11100

* * *

The following compounds are shown together with reported Ki values.
# TARGET: UniProtKB Q12809
# PROTOCOL NOTES: biochemical
# CONDITION: hERG / Ki (nM), Synthesis=Enamine

MOLECULAR STRING	TARGET	Ki (nM)
CN(C)CCN(Cc1ccccc1)Cc1nc2ccccc2n1C	UniProtKB Q12809	1050
CN(C)CCN(Cc1ccccc1F)C(=O)c1csc2ccccc12	UniProtKB Q12809	4980
CN(C)CCCN(Cc1ccc(Cl)c(Cl)c1)c1nccc2cccnc12	UniProtKB Q12809	64.9
CN(C)CCn1c(-c2ccccc2Cl)nc2ccccc21	UniProtKB Q12809	4990
CN(C)CCCN(Cc1ccc(Cl)c(Cl)c1)c1ncnc2ccn(C)c12	UniProtKB Q12809	604
CCc1csc(N(CCCN(C)C)Cc2ccc(Cl)c(Cl)c2)n1	UniProtKB Q12809	757
CN(C)CCN(Cc1cccs1)c1ccncc1Cl	UniProtKB Q12809	6060
CN(C)CCN(Cc1cccc(Cl)c1)c1nccc2cnccc12	UniProtKB Q12809	84
CN(C)CCN(Cc1ccccc1F)Cc1c(Cl)ccc2cccnc12	UniProtKB Q12809	58.3
CN(C)CCN(Cc1cccc(F)c1)Cc1c(Cl)ccc2cccnc12	UniProtKB Q12809	110
